Catalogue of MIC values
test system: Aspergillus foetidus; assay: Antifungal activity against Aspergillus foetidus isolate CM-4995 obtained from prosthesis after 48 hrs by EUCAST broth dilution method; format: functional; conditions: isolate CM-4995, 48 h
State the answer as a number, implicitly in µg/mL.

Consider the worked cases shown below.
compound | target.of.assay | reported.metric | unit.tag | result.number
C[C@@H](c1nc(-c2ccc(C#N)cc2)cs1)[C@](O)(Cn1cncn1)c1ccc(F)cc1F | Aspergillus foetidus | MIC | µg/mL | 2
CCC(C)n1ncn(-c2ccc(N3CCN(c4ccc(OCC5COC(Cn6cncn6)(c6ccc(Cl)cc6Cl)O5)cc4)CC3)cc2)c1=O (stereo not drawn) | Aspergillus foetidus | MIC | µg/mL | 1

Supply recorded MIC for "C[C@@H](c1ncncc1F)[C@](O)(Cn1cncn1)c1ccc(F)cc1F" here.
2

* * *

system: Aspergillus niger; experiment: Antifungal activity against Aspergillus niger isolate CM-3672 obtained from cutaneous layer of patient after 48 hrs by EUCAST broth dilution method; format: functional; conditions: isolate CM-3672, 48 h
reported.metric: MIC (µg/mL)
State the answer as a number, implicitly in µg/mL.

Consider the worked cases shown below.
molecule | unit.tag | MIC
C[C@@H]1[C@H](O)[C@@H](C)/C=C/C=C/C=C/C=C/C=C/C=C/C=C/[C@H](O[C@@H]2O[C@H](C)[C@@H](O)[C@H](N)[C@@H]2O)C[C@@H]2O[C@](O)(C[C@@H](O)C[C@@H](O)[C@H](O)CC[C@@H](O)C[C@@H](O)CC(=O)O[C@H]1C)C[C@H](O)[C@H]2C(=O)O [AMPHOTERICIN B] | µg/mL | 0.12
CC[C@@H]([C@H](C)O)n1ncn(-c2ccc(N3CCN(c4ccc(OC[C@@H]5CO[C@@](Cn6cncn6)(c6ccc(F)cc6F)C5)cc4)CC3)cc2)c1=O [POSACONAZOLE] | µg/mL | 0.19
C[C@@H](c1nc(-c2ccc(C#N)cc2)cs1)[C@](O)(Cn1cncn1)c1ccc(F)cc1F [RAVUCONAZOLE] | µg/mL | 1.5
CN(C/C=C/C#CC(C)(C)C)Cc1cccc2ccccc12 [TERBINAFINE] | µg/mL | 0.07
C[C@@H](c1ncncc1F)[C@](O)(Cn1cncn1)c1ccc(F)cc1F [VORICONAZOLE] | µg/mL | 1

Okay, now this molecule:
Supply recorded MIC for CCC(C)n1ncn(-c2ccc(N3CCN(c4ccc(OCC5COC(Cn6cncn6)(c6ccc(Cl)cc6Cl)O5)cc4)CC3)cc2)c1=O (stereo unspecified) [ITRACONAZOLE] here.
0.5

* * *

tested on: Aspergillus tubingensis; test: Antifungal activity against Aspergillus tubingensis isolate CM-3654 obtained from blood culture after 48 hrs by EUCAST broth dilution method; assay type: functional; conditions: isolate CM-3654, 48 h
reported.metric: MIC (µg/mL)
State the answer as a number, implicitly in µg/mL.

Consider the worked cases shown below.
molecule | target.of.assay | MIC / µg/mL
CC[C@@H]([C@H](C)O)n1ncn(-c2ccc(N3CCN(c4ccc(OC[C@@H]5CO[C@@](Cn6cncn6)(c6ccc(F)cc6F)C5)cc4)CC3)cc2)c1=O [POSACONAZOLE] | Aspergillus tubingensis | 0.25
CCC(C)n1ncn(-c2ccc(N3CCN(c4ccc(OCC5COC(Cn6cncn6)(c6ccc(Cl)cc6Cl)O5)cc4)CC3)cc2)c1=O (stereo unspecified) [ITRACONAZOLE] | Aspergillus tubingensis | 1

# assay system Aspergillus tubingensis: give MIC of C[C@@H](c1ncncc1F)[C@](O)(Cn1cncn1)c1ccc(F)cc1F [VORICONAZOLE]
2

# assay system Aspergillus tubingensis: give MIC of CN(C/C=C/C#CC(C)(C)C)Cc1cccc2ccccc12 [TERBINAFINE]
0.63

# assay system Aspergillus tubingensis: give MIC of C[C@@H](c1nc(-c2ccc(C#N)cc2)cs1)[C@](O)(Cn1cncn1)c1ccc(F)cc1F [RAVUCONAZOLE]
2.5

# assay system Aspergillus tubingensis: give MIC of C[C@@H]1[C@H](O)[C@@H](C)/C=C/C=C/C=C/C=C/C=C/C=C/C=C/[C@H](O[C@@H]2O[C@H](C)[C@@H](O)[C@H](N)[C@@H]2O)C[C@@H]2O[C@](O)(C[C@@H](O)C[C@@H](O)[C@H](O)CC[C@@H](O)C[C@@H](O)CC(=O)O[C@H]1C)C[C@H](O)[C@H]2C(=O)O [AMPHOTERICIN B]
0.19

* * *

tested on: Aspergillus niger; experiment: Antifungal activity against Aspergillus niger isolate CM-3551 obtained from respiratory tract infection of patient after 48 hrs by EUCAST broth dilution method; format: functional; conditions: isolate CM-3551, 48 h
reported.metric: log10(MIC) (log10 of the value in µg/mL)
Heads up: the numbers are on a log10 scale; they represent MIC in µg/mL.

Consider the worked cases shown below.
compound | log10(MIC)
CC[C@@H]([C@H](C)O)n1ncn(-c2ccc(N3CCN(c4ccc(OC[C@@H]5CO[C@@](Cn6cncn6)(c6ccc(F)cc6F)C5)cc4)CC3)cc2)c1=O [POSACONAZOLE] | -0.92
C[C@@H](c1nc(-c2ccc(C#N)cc2)cs1)[C@](O)(Cn1cncn1)c1ccc(F)cc1F [RAVUCONAZOLE] | 0.30
CCC(C)n1ncn(-c2ccc(N3CCN(c4ccc(OCC5COC(Cn6cncn6)(c6ccc(Cl)cc6Cl)O5)cc4)CC3)cc2)c1=O (stereo unspecified) [ITRACONAZOLE] | 0.68

Supply recorded log10(MIC) for C[C@@H](c1ncncc1F)[C@](O)(Cn1cncn1)c1ccc(F)cc1F [VORICONAZOLE] here.
0.00

Supply recorded log10(MIC) for CN(C/C=C/C#CC(C)(C)C)Cc1cccc2ccccc12 [TERBINAFINE] here.
-0.60

Supply recorded log10(MIC) for C[C@@H]1[C@H](O)[C@@H](C)/C=C/C=C/C=C/C=C/C=C/C=C/C=C/[C@H](O[C@@H]2O[C@H](C)[C@@H](O)[C@H](N)[C@@H]2O)C[C@@H]2O[C@](O)(C[C@@H](O)C[C@@H](O)[C@H](O)CC[C@@H](O)C[C@@H](O)CC(=O)O[C@H]1C)C[C@H](O)[C@H]2C(=O)O [AMPHOTERICIN B] here.
-0.30
